# MEASURED_TARGET: Nuclear receptor coactivator 1 (Homo sapiens) (UniProt Q15788)
# Sequence (Q15788 whole entry, looked up): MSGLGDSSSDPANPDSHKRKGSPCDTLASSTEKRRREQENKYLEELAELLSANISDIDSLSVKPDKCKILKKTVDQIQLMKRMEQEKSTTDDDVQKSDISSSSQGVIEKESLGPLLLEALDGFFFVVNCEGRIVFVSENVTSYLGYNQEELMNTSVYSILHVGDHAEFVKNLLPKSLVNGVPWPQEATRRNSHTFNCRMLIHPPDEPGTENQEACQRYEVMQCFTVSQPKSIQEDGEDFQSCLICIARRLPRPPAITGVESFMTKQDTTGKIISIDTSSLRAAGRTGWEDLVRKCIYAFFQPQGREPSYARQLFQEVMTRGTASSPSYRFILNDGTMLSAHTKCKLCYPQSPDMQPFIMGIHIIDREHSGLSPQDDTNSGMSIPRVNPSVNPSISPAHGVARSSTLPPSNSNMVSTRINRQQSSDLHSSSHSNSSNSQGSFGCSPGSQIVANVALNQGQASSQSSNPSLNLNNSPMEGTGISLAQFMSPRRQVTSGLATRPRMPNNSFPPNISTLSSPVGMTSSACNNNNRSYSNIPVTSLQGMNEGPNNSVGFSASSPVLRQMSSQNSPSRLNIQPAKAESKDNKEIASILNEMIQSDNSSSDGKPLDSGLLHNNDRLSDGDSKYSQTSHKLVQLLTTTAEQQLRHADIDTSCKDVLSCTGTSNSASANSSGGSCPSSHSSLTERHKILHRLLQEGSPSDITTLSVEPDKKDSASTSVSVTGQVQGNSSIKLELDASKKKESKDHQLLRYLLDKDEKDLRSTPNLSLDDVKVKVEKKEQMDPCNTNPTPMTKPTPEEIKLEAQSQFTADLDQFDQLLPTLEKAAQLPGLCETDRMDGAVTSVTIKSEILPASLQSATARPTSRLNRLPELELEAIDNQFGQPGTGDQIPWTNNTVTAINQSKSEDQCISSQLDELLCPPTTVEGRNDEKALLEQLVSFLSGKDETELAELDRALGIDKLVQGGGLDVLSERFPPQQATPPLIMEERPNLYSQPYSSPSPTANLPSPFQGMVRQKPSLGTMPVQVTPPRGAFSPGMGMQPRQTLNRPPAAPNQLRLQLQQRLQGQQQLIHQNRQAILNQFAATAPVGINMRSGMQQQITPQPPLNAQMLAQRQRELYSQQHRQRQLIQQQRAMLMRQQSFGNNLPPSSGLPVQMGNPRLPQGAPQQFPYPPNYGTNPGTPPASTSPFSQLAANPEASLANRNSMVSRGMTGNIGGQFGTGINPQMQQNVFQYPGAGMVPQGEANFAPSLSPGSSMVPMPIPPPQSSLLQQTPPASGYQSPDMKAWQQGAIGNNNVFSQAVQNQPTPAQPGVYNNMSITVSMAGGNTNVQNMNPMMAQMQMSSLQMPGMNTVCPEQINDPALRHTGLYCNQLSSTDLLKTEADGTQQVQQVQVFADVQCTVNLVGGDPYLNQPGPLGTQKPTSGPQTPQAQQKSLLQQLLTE
# ASSAY_METHOD_TEXT: SRC1 coactivator transcriptional activity inhibitors, dose response, counter-screen for SRC3 inhibitor project, cell-based, luminescence (AID 602168)
# PARTICULARS: Cell-based SRC1 luciferase reporter
Calls of active or inactive are those of the source. How the calls were made is not given here.
READOUT_NAME: IC50

{"MOLECULE": "CC(=O)NC(c1cc(Cl)c2cccnc2c1O)C(C)C (stereo unspecified)", "RECORDED_VALUE": "7.94 µM"}
{"MOLECULE": "Nc1nccc(-c2ccc(-n3cnc4ccccc43)cc2)n1", "RECORDED_VALUE": "2.23 µM"}
{"MOLECULE": "C#CC(=O)N(c1cc(OC)ccc1OC)C(C(=O)NC1CCCC1)c1cccs1 (stereo unspecified)", "RECORDED_VALUE": "> 35.9 µM (inactive)"}
{"MOLECULE": "O=C(OCCC12CC3CC(CC(C3)C1)C2)c1ccc(NCc2cc(O)ccc2O)cc1", "RECORDED_VALUE": "inactive"}

Request - read-out IC50 | tested on Nuclear receptor coactivator 1 (Homo sapiens) (UniProt Q15788) | molecule "O=C(COc1ccc(Cl)cc1)Nc1ccc(C(=O)NCc2cccnc2)cc1"
9.27 µM

Request - read-out IC50 | tested on Nuclear receptor coactivator 1 (Homo sapiens) (UniProt Q15788) | molecule COc1cc2c(c(OC)c1OC)-c1ccc(SC)c(=O)cc1C(NC=O)CC2 (stereo unspecified)
> 35.9 µM (inactive)

Request - read-out IC50 | tested on Nuclear receptor coactivator 1 (Homo sapiens) (UniProt Q15788) | molecule "CC(=O)OCCN1c2ccccc2Sc2cnccc21"
inactive

Request - read-out IC50 | tested on Nuclear receptor coactivator 1 (Homo sapiens) (UniProt Q15788) | molecule "O=C(Nc1ccc(OCC(=O)N2CCOCC2)cc1)c1cncc(Br)c1"
inactive

* * *

# MEASURED_TARGET: Nuclear receptor coactivator 1 (Homo sapiens) (UniProt Q15788)
# ASSAY_METHOD_TEXT: SRC1 coactivator transcriptional activity inhibitors, dose response, counter-screen for SRC3 inhibitor project, cell-based, luminescence (AID 602168)
# PARTICULARS: Cell-based SRC1 luciferase reporter
Calls of active or inactive are those of the source. The rule behind the calls is not given here.
Answer with one of the outcomes given here: active, inactive

Please indicate how the test categorized "Cc1cccc(C)c1NS(=O)(=O)c1ccc(-c2cnc(C3CC3)o2)cc1" .
inactive

Please indicate how the test categorized CCCC(=O)NC(c1ccc2c(c1)OCO2)c1cc(Cl)c2cccnc2c1O (configuration not stated) .
active

Please indicate how the test categorized "S=C(Nc1ccccc1)Nc1ccc(OCc2ccc(Cl)cc2Cl)cc1" .
inactive

Please indicate how the test categorized "Nc1nc(CCl)nc(Nc2cccc3ccccc23)n1" .
inactive

Please indicate how the test categorized "COc1cccc(CNc2ncnc3ccc(-c4c(C)noc4C)cc23)c1" .
inactive

Please indicate how the test categorized "N#Cc1c2ccc(O)cc2n2ccccc12" .
inactive

Please indicate how the test categorized "Nc1ncnc(NCc2ccccc2)c1[N+](=O)[O-]" .
inactive

Please indicate how the test categorized "c1ccc2c(c1)Nc1ccncc1S2" .
inactive

Please indicate how the test categorized "Cc1ccc(N(CCC#N)C(=O)CCl)cc1C" .
inactive

Please indicate how the test categorized "CCCc1c(C)nc2ccccc2c1SCCC#N" .
active

Please indicate how the test categorized "O=[N+]([O-])c1cccc2c1ccc1ncccc12" .
inactive

Please indicate how the test categorized "CCCCN1C=CC(=C2C(=O)c3ccccc3C2=O)C=C1" .
inactive

Please indicate how the test categorized "CCCNC(=O)c1nnsc1S(=O)(=O)c1ccc(Cl)cc1" .
inactive

Please indicate how the test categorized "C=CC[n+]1c(-c2ccc(C)cc2)csc1Nc1ccc(NC(C)=O)cc1" .
inactive

Please indicate how the test categorized "O=C(NCc1ccccc1)c1c(Cl)nc(Cl)c(Cl)c1Cl" .
inactive

Please indicate how the test categorized "Cc1cc2nccc(-c3ccncc3)n2n1" .
inactive

Please indicate how the test categorized "CCC(=O)c1ccc(O)c(CC=C(C)C)c1" .
inactive

Please indicate how the test categorized "O=C(c1ccncc1)N(Cc1cc2ccccc2[nH]c1=O)C1CCCCC1" .
active

Please indicate how the test categorized COc1ccc(C(C(=O)NC2CCCCC2)N(C(=O)CCl)c2ccc(Cl)cc2)cc1 (configuration not stated) .
inactive

Please indicate how the test categorized "Cc1cc(C(=O)COC(=O)C2=COCCO2)c(C)n1-c1ccccc1" .
inactive

Please indicate how the test categorized Nc1nc2c(nnn2C2CC(O)C(CO)O2)c(=O)[nH]1 (configuration not stated) .
inactive

Please indicate how the test categorized "COc1cc(C(=O)N/N=C(\c2ccccc2)c2ccccn2)cc(OC)c1OC" .
inactive

Please indicate how the test categorized "COc1cccc(-c2nnc3sc(C4CCCCC4)nn23)c1" .
active

Please indicate how the test categorized "CCC(=O)N1CCN(c2ccnc3cc(Cl)ccc23)CC1" .
inactive

Please indicate how the test categorized "Nc1ccc(Oc2ccccc2-c2ccccc2)cc1" .
inactive

Please indicate how the test categorized "Fc1ccccc1-c1csc(=Nc2cccnc2)n1CCCn1ccnc1" .
active

Please indicate how the test categorized "Cc1ccc(N=c2c([N+](=O)[O-])nn(-c3ccc4c(c3)OCCO4)n2O)cc1F" .
inactive

Please indicate how the test categorized "O=C(NCCCn1ccnc1)c1ccc(N2CCCCCC2)c([N+](=O)[O-])c1" .
inactive

Please indicate how the test categorized "CCc1nc(N)nc(N)c1-c1ccc(Cl)c([N+](=O)[O-])c1" .
active

Please indicate how the test categorized "CC(C)(C)C(=O)Nc1ccc(N=Nc2ccccc2)cc1" .
inactive

Please indicate how the test categorized Cc1ccc(C2=NN(C(=O)CCl)C(c3cccs3)C2)o1 (configuration not stated) .
inactive

Please indicate how the test categorized "C=CCOc1ccc(/C=C2\SC(=S)N(CCC(=O)O)C2=O)cc1" .
active

Please indicate how the test categorized "CCOc1ccc(/C=C2\SC(=S)N(CCCC(=O)NCCCN3CCOCC3)C2=O)cc1" .
inactive

Please indicate how the test categorized "CC(C)(C)c1ccc(Oc2ccc(N)cn2)cc1" .
inactive

Please indicate how the test categorized O=c1[nH]c2ccccc2n1C1CCN(C(c2ccccc2)c2nnnn2Cc2ccccc2)CC1 (configuration not stated) .
inactive

Please indicate how the test categorized "CCOc1cc(/C=C2\CCC/C(=C\c3cc(Cl)c(O)c(OCC)c3)C2=O)cc(Cl)c1O" .
inactive

Please indicate how the test categorized "CCn1ccnc1CN(C)Cc1cn[nH]c1-c1ccc(OC)c(F)c1" .
active

Please indicate how the test categorized O=C(CCl)N1N=C(c2ccco2)CC1c1ccco1 (configuration not stated) .
inactive

Please indicate how the test categorized "Cc1ccc(C(=O)Nc2cnc3ccccc3c2)cc1" .
inactive

Please indicate how the test categorized "Oc1ccc(C=NNc2ccccn2)c(O)c1" .
inactive

Please indicate how the test categorized "O=[N+]([O-])c1nn(-c2ccc3c(c2)OCCO3)n(O)c1=Nc1ccccc1" .
active

Please indicate how the test categorized "C(=NNc1ccc2ccccc2n1)c1ccccn1" .
inactive

Please indicate how the test categorized "CCc1ccc(-c2nc(CSCC(=O)NCc3ccco3)c(C)o2)cc1" .
inactive

Please indicate how the test categorized "CCc1ccc(/C=C2\SC(=S)N(CCCC(=O)NCCCN3CCOCC3)C2=O)cc1" .
inactive

Please indicate how the test categorized "Cc1cc(-c2nnc(SCC(=O)Nc3ccccc3C(F)(F)F)o2)c(C)n1-c1ccccc1" .
inactive

Please indicate how the test categorized "Cc1nc(N2CCC(C(N)=O)CC2)c2c(-c3cccs3)csc2n1" .
active

Please indicate how the test categorized "Cc1nnc(SC(=O)N2c3ccccc3Sc3ccccc32)s1" .
inactive

Data origin: PubChem BioAssay AID602168
